TEST SYSTEM: Su(dx) WW2 domain (Drosophila, UniProt Q9Y0H4 392-431)
Sequence (Q9Y0H4 392-431): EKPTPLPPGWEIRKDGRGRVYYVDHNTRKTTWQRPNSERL
MEASUREMENT DESCRIPTION: ITC
pKd: −log10 of the molar value.
MEASURED PROPERTY: pKd

binder="GPPPPPYPG [WBP1 peptide]" measured_value=3.93
